The origin of these recorded values is patent US11041000B2.

# TARGET OF ASSAY: IL-23R-expressing DB cells (Homo sapiens, UniProt Q5VWK5)
# Sequence (Q5VWK5 24-629 limits assumed): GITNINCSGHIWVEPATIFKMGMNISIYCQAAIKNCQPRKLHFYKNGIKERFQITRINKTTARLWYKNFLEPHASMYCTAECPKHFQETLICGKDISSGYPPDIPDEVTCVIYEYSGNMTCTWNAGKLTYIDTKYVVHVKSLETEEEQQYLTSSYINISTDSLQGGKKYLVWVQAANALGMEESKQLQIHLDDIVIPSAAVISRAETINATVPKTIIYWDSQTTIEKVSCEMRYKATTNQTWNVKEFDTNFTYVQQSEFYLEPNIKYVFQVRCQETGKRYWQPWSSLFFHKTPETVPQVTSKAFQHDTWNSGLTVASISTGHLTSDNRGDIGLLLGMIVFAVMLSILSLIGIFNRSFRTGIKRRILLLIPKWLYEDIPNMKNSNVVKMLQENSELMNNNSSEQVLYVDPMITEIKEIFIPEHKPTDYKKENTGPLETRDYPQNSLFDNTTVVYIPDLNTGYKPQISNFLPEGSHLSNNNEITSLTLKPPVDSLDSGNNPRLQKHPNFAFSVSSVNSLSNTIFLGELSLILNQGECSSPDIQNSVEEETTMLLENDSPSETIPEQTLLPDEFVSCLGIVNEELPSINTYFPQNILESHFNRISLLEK
# METHOD: DB cells IL23R pSTAT3 cell assay (pStat3HTRF)
# CONDITION SET: DB cells stimulated with IL-23 0.5 nM, 30 minutes, phospho-STAT3 in cell lysates; read-out: pStat3 HTRF
Bridge positions count the residues as written; N and C are the ends. Square brackets hold non-standard residues; d marks the D form. Peptide text beside a SMILES is read from it. Trp(7-Me) = Cc1cccc2c(C[C@H](N)C(=O)O)c[nH]c12; 2Nal = N[C@@H](Cc1ccc2ccccc2c1)C(=O)O; AEF = NCCOc1ccc(C[C@H](N)C(=O)O)cc1; Pen = CC(C)(S)[C@H](N)C(=O)O; αMeK = C[C@](N)(CCCCN)C(=O)O; Aib = CC(C)(N)C(=O)O; βAla = NCCC(=O)O
Label key: Yes means IC50 under 2 nM; No means IC50 of 2 nM or more.

| COMPOUND | GROUP LABEL |
| --- | --- |
| CC(=O)NCCCC[C@@H]1NC(=O)[C@H](Cc2c[nH]c3c(C)cccc23)NC(=O)[C@H]([C@@H](C)O)NC(=O)[C@H](CC(N)=O)NC(=O)[C@@H](NC(C)=O)C(C)(C)SSC(C)(C)[C@@H](C(=O)N[C@@H](Cc2ccc(OCCN)cc2)C(=O)N[C@@H](Cc2ccc3ccccc3c2)C(=O)N[C@@](C)(CCCCN)C(=O)N[C@@H](CCCCNC(C)=O)C(=O)N[C@@H](CC(N)=O)C(=O)N[C@H](Cc2ccccc2)C(N)=O)NC1=O | Yes |
| CC(=O)NCCCC[C@H](NC(=O)C1(NC(=O)[C@H](Cc2ccc3ccccc3c2)NC(=O)[C@H](Cc2ccc(OCCN)cc2)NC(=O)[C@H]2NC(=O)[C@H](CCC(N)=O)NC(=O)[C@H](Cc3c[nH]c4c(C)cccc34)NC(=O)[C@H]([C@@H](C)O)NC(=O)[C@H](CC(N)=O)NC(=O)[C@@H](NC(C)=O)C(C)(C)SSC2(C)C)CCNCC1)C(=O)N[C@@H](CC(N)=O)C(=O)NCCC(N)=O | No |
| CC(=O)NCCCC[C@H](NC(=O)[C@](C)(CC(C)C)NC(=O)[C@H](Cc1ccc2ccccc2c1)NC(=O)[C@H](Cc1ccc(OCCN)cc1)NC(=O)[C@H]1NC(=O)[C@H](CCC(N)=O)NC(=O)[C@H](Cc2c[nH]c3c(C)cccc23)NC(=O)[C@H]([C@@H](C)O)NC(=O)[C@H](CC(N)=O)NC(=O)[C@@H](NC(C)=O)C(C)(C)SSC1(C)C)C(=O)N[C@@H](C(=O)NCCC(N)=O)[C@H](C)O | No |
| CC(=O)NCCCC[C@H](NC(=O)[C@](C)(CCCCN)NC(=O)[C@H](Cc1ccc2ccccc2c1)NC(=O)[C@H](Cc1ccc(OCCN)cc1)NC(=O)[C@H]1NC(=O)[C@H](CCCCNC(=O)C2CCCCC2)NC(=O)[C@H](Cc2c[nH]c3c(C)cccc23)NC(=O)[C@H]([C@@H](C)O)NC(=O)[C@H](CC(N)=O)NC(=O)[C@@H](NC(C)=O)C(C)(C)SSC1(C)C)C(=O)N[C@@H](CC(N)=O)C(=O)N[C@H](CC(C)C)C(N)=O | No |
| CC(=O)NCCCC[C@H](NC(=O)[C@](C)(CCCCN)NC(=O)[C@H](Cc1ccc2ccccc2c1)NC(=O)[C@H](Cc1ccc(OCCN)cc1)NC(=O)[C@H]1NC(=O)[C@H](CCCCNC(=O)C(C)(C)N)NC(=O)[C@H](Cc2c[nH]c3c(C)cccc23)NC(=O)[C@H]([C@@H](C)O)NC(=O)[C@H](CC(N)=O)NC(=O)[C@@H](NC(C)=O)C(C)(C)SSC1(C)C)C(=O)N[C@@H](CC(N)=O)C(=O)N[C@H](CC(C)C)C(N)=O | Yes |

# next compound below
Field: below-cutoff. Rule: recorded IC50 strictly less than 2 nM. Subject: CC(=O)NCCCC[C@H](NC(=O)[C@](C)(CCCCN)NC(=O)[C@H](Cc1ccc2ccccc2c1)NC(=O)[C@H](Cc1ccc(OCCN)cc1)NC(=O)[C@H]1NC(=O)[C@H](CCC(N)=O)NC(=O)[C@H](Cc2c[nH]c3c(C)cccc23)NC(=O)[C@H]([C@@H](C)O)NC(=O)C(C)(C)NC(=O)[C@@H](NC(C)=O)C(C)(C)SSC1(C)C)C(=O)N[C@@H](CC(N)=O)C(=O)NCCC(N)=O [compound 240] (Ac-[Pen][Aib]T[Trp(7-Me)]Q[Pen][AEF][2Nal][αMeK]K(Ac)N[βAla]-NH2; disulfide 1-6)
No
